System: 855422-203-R-J1-PDC complex spheroids, viability;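 note: spheroids exposed to drugs for seven days before readout; 100% = DMSO vehicle control wells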
Assay: Anticancer human tumor 855422-203-R-J1-PDC patient-derived bladder carcinoma cell line growth inhibition [CLK]
Details: second compound 0.316 µM; first compound 10 µM; stronger effect = lower value
viability, T/C less than 9% is 1.0; viability, T/C greater than or equal to 9% is 0.0.

>  <MOLECULE>
CC(CO)NC(=O)c1cc(-c2ccc(Cl)cc2)nn(-c2cnn(C)c2)c1=O (configuration not stated) + CN1CCN(c2cc(C(=O)Nc3cc4cc(-c5cnn(C)c5)ccc4cn3)ccn2)CC1

>  <LABEL_VALUE>
0.0

$$$$
>  <MOLECULE>
C#Cc1c(F)ccc2cc(O)cc(-c3ncc4c(N5CC6CCC(C5)N6)nc(OCC56CCCN5CC(F)C6)nc4c3F)c12 (configuration not stated) + CNC(=O)c1ccc(Nc2nc(OC3CCCC3)c3c(-c4ccc5nc(C)oc5c4)c[nH]c3n2)c(OC)c1

>  <LABEL_VALUE>
0.0

$$$$
>  <MOLECULE>
COC1C=CCC(C)C(C)S(=O)(=O)NC(=O)c2ccc3c(c2)N(CC2CCC21)CC1(CCCc2cc(Cl)ccc21)CO3 (configuration not stated) + CN1CCN(c2cc(C(=O)Nc3cc4cc(-c5cnn(C)c5)ccc4cn3)ccn2)CC1

>  <LABEL_VALUE>
1.0

$$$$
>  <MOLECULE>
CC(Nc1ccc2c(c1)OCCn1cc(N3C(=O)OCC3C(F)F)nc1-2)C(N)=O (configuration not stated) + CNC(=O)c1ccc(Nc2nc(OC3CCCC3)c3c(-c4ccc5nc(C)oc5c4)c[nH]c3n2)c(OC)c1

>  <LABEL_VALUE>
1.0

$$$$
>  <MOLECULE>
CC1(C)CCC(CN2CCN(c3ccc(C(=O)NS(=O)(=O)c4ccc(NCC5CCOCC5)c([N+](=O)[O-])c4)c(Oc4cnc5[nH]ccc5c4)c3)CC2)=C(c2ccc(Cl)cc2)C1 + CN1CCN(c2cc(C(=O)Nc3cc4cc(-c5cnn(C)c5)ccc4cn3)ccn2)CC1

>  <LABEL_VALUE>
1.0

$$$$
>  <MOLECULE>
C=C(F)C(=O)N1CCN(c2nc(OCC3CCCN3C)nc3c2CCN(c2cccc4cccc(Cl)c24)C3)CC1CC#N (configuration not stated) + CNC(=O)c1ccc(Nc2nc(OC3CCCC3)c3c(-c4ccc5nc(C)oc5c4)c[nH]c3n2)c(OC)c1

>  <LABEL_VALUE>
1.0

$$$$
>  <MOLECULE>
CC1COCCN1c1cc(C2(S(C)(=N)=O)CC2)nc(-c2ccnc3[nH]ccc23)n1 (configuration not stated) + CNC(=O)c1ccc(Nc2nc(OC3CCCC3)c3c(-c4ccc5nc(C)oc5c4)c[nH]c3n2)c(OC)c1

>  <LABEL_VALUE>
0.0

$$$$
>  <MOLECULE>
C#Cc1c(F)ccc2cc(O)cc(-c3ncc4c(N5CC6CCC(C5)N6)nc(OCC56CCCN5CC(F)C6)nc4c3F)c12 (configuration not stated) + CN1CCN(c2cc(C(=O)Nc3cc4cc(-c5cnn(C)c5)ccc4cn3)ccn2)CC1

>  <LABEL_VALUE>
1.0

$$$$
>  <MOLECULE>
CC(=O)O[C@H]1C(=O)[C@@]2(C)[C@H]([C@H](OC(=O)c3ccccc3)[C@]3(O)C[C@H](OC(=O)[C@H](O)[C@@H](NC(=O)c4ccccc4)c4ccccc4)C(C)=C1C3(C)C)[C@]1(OC(C)=O)CO[C@@H]1C[C@@H]2O + CNC(=O)c1ccc(Nc2nc(OC3CCCC3)c3c(-c4ccc5nc(C)oc5c4)c[nH]c3n2)c(OC)c1

>  <LABEL_VALUE>
0.0

$$$$
>  <MOLECULE>
CCCS(=O)(=O)Nc1ccc(F)c(C(=O)c2c[nH]c3ncc(-c4ccc(Cl)cc4)cc23)c1F + CNC(=O)c1ccc(Nc2nc(OC3CCCC3)c3c(-c4ccc5nc(C)oc5c4)c[nH]c3n2)c(OC)c1

>  <LABEL_VALUE>
1.0

$$$$
>  <MOLECULE>
Nc1ccccc1NC(=O)c1ccc(CNC(=O)OCc2cccnc2)cc1 + CN1CCN(c2cc(C(=O)Nc3cc4cc(-c5cnn(C)c5)ccc4cn3)ccn2)CC1

>  <LABEL_VALUE>
1.0

$$$$
>  <MOLECULE>
Nc1ccn(C2OC(CO)C(O)C2(F)F)c(=O)n1 (configuration not stated) + CNC(=O)c1ccc(Nc2nc(OC3CCCC3)c3c(-c4ccc5nc(C)oc5c4)c[nH]c3n2)c(OC)c1

>  <LABEL_VALUE>
1.0

$$$$
>  <MOLECULE>
Nc1ccn(C2OC(CO)C(O)C2(F)F)c(=O)n1 (configuration not stated) + CN1CCN(c2cc(C(=O)Nc3cc4cc(-c5cnn(C)c5)ccc4cn3)ccn2)CC1

>  <LABEL_VALUE>
1.0

$$$$
>  <MOLECULE>
CC(Nc1ccc2c(c1)OCCn1cc(N3C(=O)OCC3C(F)F)nc1-2)C(N)=O (configuration not stated) + CN1CCN(c2cc(C(=O)Nc3cc4cc(-c5cnn(C)c5)ccc4cn3)ccn2)CC1

>  <LABEL_VALUE>
1.0

$$$$
>  <MOLECULE>
CC1(C)CCC(CN2CCN(c3ccc(C(=O)NS(=O)(=O)c4ccc(NCC5CCOCC5)c([N+](=O)[O-])c4)c(Oc4cnc5[nH]ccc5c4)c3)CC2)=C(c2ccc(Cl)cc2)C1 + CNC(=O)c1ccc(Nc2nc(OC3CCCC3)c3c(-c4ccc5nc(C)oc5c4)c[nH]c3n2)c(OC)c1

>  <LABEL_VALUE>
1.0

$$$$
>  <MOLECULE>
COc1cccc2c1C(=O)c1c(O)c3c(c(O)c1C2=O)CC(O)(C(=O)CO)CC3OC1CC(N)C(O)C(C)O1 (configuration not stated) + CN1CCN(c2cc(C(=O)Nc3cc4cc(-c5cnn(C)c5)ccc4cn3)ccn2)CC1

>  <LABEL_VALUE>
1.0

$$$$
>  <MOLECULE>
O=c1[nH]cc(F)c(=O)[nH]1 + CN1CCN(c2cc(C(=O)Nc3cc4cc(-c5cnn(C)c5)ccc4cn3)ccn2)CC1

>  <LABEL_VALUE>
1.0

$$$$
>  <MOLECULE>
O=C(c1cc(Cc2n[nH]c(=O)c3ccccc23)ccc1F)N1CCN(C(=O)C2CC2)CC1 + CNC(=O)c1ccc(Nc2nc(OC3CCCC3)c3c(-c4ccc5nc(C)oc5c4)c[nH]c3n2)c(OC)c1

>  <LABEL_VALUE>
0.0

$$$$
>  <MOLECULE>
COc1cccc2c1C(=O)c1c(O)c3c(c(O)c1C2=O)CC(O)(C(=O)CO)CC3OC1CC(N)C(O)C(C)O1 (configuration not stated) + CNC(=O)c1ccc(Nc2nc(OC3CCCC3)c3c(-c4ccc5nc(C)oc5c4)c[nH]c3n2)c(OC)c1

>  <LABEL_VALUE>
1.0

$$$$
>  <MOLECULE>
CC(CO)NC(=O)c1cc(-c2ccc(Cl)cc2)nn(-c2cnn(C)c2)c1=O (configuration not stated) + CNC(=O)c1ccc(Nc2nc(OC3CCCC3)c3c(-c4ccc5nc(C)oc5c4)c[nH]c3n2)c(OC)c1

>  <LABEL_VALUE>
0.0

$$$$
>  <MOLECULE>
Nc1ccccc1NC(=O)c1ccc(CNC(=O)OCc2cccnc2)cc1 + CNC(=O)c1ccc(Nc2nc(OC3CCCC3)c3c(-c4ccc5nc(C)oc5c4)c[nH]c3n2)c(OC)c1

>  <LABEL_VALUE>
1.0

$$$$
>  <MOLECULE>
COC1C=CCC(C)C(C)S(=O)(=O)NC(=O)c2ccc3c(c2)N(CC2CCC21)CC1(CCCc2cc(Cl)ccc21)CO3 (configuration not stated) + CNC(=O)c1ccc(Nc2nc(OC3CCCC3)c3c(-c4ccc5nc(C)oc5c4)c[nH]c3n2)c(OC)c1

>  <LABEL_VALUE>
0.0

$$$$
